test system: A549 cells; assay: Antiproliferation WST-1 assay, A549; type: cell-based, human; conditions: WST-1 assay; A549 carcinomic human alveolar basal epithelial cell; read-out: Cellular IC50, A549
MEASURE_NAME: pIC50
Give bare numbers, as −log10 of the molar value.

Batch request: pIC50 for each of the following compounds.
1. O=C(Nc1ccc2ncnc(Nc3cccc(Br)c3)c2c1)c1ccc(Cl)cc1
2. O=C(Nc1ccc2ncnc(Nc3cccc(Cl)c3)c2c1)c1cc(Br)ccc1O
3. O=C(Nc1ccc2ncnc(Nc3cccc(Br)c3)c2c1)c1cc(Cl)ccc1O
4. Oc1ccc(Br)cc1CNc1ccc2ncnc(Nc3cccc(Cl)c3)c2c1

Result:
1. 5.75
2. 5.77
3. 5.75
4. 5.67

Lab book: pIC50 of O=C(Nc1ccc2ncnc(Nc3cccc(Br)c3)c2c1)c1ccc(C(F)(F)F)cc1O noted as 5.79

* * *

molecular target: cSRC (Homo sapiens, UniProt P12931)
Sequence (P12931 whole entry, species assumed): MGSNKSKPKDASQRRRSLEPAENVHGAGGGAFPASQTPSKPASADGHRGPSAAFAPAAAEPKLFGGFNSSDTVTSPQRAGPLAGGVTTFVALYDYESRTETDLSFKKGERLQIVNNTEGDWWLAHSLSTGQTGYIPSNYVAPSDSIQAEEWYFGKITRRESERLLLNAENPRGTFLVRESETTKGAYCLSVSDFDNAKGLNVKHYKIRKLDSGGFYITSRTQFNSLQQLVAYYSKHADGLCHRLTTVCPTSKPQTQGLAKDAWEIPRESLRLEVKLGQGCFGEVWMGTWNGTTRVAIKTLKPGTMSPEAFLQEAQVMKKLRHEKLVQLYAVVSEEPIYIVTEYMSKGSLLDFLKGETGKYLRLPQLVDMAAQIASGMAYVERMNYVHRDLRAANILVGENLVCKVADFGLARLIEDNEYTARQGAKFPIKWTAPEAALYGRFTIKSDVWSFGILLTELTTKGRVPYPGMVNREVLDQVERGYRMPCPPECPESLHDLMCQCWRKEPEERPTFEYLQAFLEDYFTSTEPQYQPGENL
MEASURE_NAME: pIC50
Answers are plain numbers, as −log10 of the molar value.

Reported pIC50 ( O=C(Nc1ccc2ncnc(Nc3cccc(Br)c3)c2c1)c1ccc(C(F)(F)F)cc1O ) = 4.92

* * *

Below are compounds with their pIC50 as measured on human HER2 (Homo sapiens, UniProt P04626).
Sequence (P04626 676-1255): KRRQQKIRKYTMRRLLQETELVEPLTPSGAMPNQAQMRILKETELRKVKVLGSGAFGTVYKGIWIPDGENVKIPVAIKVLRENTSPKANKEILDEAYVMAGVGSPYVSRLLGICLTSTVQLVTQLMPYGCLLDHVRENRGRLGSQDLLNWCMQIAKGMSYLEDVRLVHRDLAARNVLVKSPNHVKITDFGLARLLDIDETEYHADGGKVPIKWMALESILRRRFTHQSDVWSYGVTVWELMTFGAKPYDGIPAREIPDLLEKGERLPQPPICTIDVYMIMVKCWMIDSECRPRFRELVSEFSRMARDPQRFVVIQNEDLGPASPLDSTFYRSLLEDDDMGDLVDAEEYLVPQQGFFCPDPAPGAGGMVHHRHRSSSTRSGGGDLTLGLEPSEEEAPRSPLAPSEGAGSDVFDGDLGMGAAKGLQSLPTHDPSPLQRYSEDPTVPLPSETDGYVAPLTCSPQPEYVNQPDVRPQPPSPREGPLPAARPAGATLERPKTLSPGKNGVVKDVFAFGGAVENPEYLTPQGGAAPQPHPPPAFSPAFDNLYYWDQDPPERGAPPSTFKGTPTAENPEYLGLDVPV
Answers are plain numbers, as −log10 of the molar value.

Consider the reported pIC50 for these compounds:
                                        mol                        measurement_target  result_value
0  O=C(Nc1ccc2ncnc(Nc3cccc(Br)c3)c2c1)c1ccc(Cl)cc1  human HER2 (Homo sapiens, UniProt P04626)          5.34
1  O=C(Nc1ccc2ncnc(Nc3cccc(Cl)c3)c2c1)c1ccccc1O  human HER2 (Homo sapiens, UniProt P04626)          6.08
2  O=C(Nc1ccc2ncnc(Nc3cccc(Br)c3)c2c1)c1ccc(C(F)(F)F)cc1O  human HER2 (Homo sapiens, UniProt P04626)          7.02
3  Oc1ccc(Br)cc1CNc1ccc2ncnc(Nc3cccc(Br)c3)c2c1  human HER2 (Homo sapiens, UniProt P04626)          5.85
4  Oc1c(Cl)cc(Cl)cc1CNc1ccc2ncnc(Nc3cccc(Cl)c3)c2c1  human HER2 (Homo sapiens, UniProt P04626)          6.04

# return pIC50 for each item in the list
1. Oc1c(Br)cc(Br)cc1CNc1ccc2ncnc(Nc3cccc(Cl)c3)c2c1
2. Cc1ccc(C(=O)Nc2ccc3ncnc(Nc4cccc(Cl)c4)c3c2)c(O)c1
3. O=C(Nc1ccc2ncnc(Nc3cccc(Br)c3)c2c1)c1cc(Br)cc(Br)c1O
4. O=C(Nc1ccc2ncnc(Nc3cccc(Br)c3)c2c1)c1cc(Cl)ccc1O
5. O=C(Nc1ccc2ncnc(Nc3cccc(Cl)c3)c2c1)c1ccc(Cl)cc1O
6. O=C(Nc1ccc2ncnc(Nc3cccc(Br)c3)c2c1)c1ccc(Cl)cc1O

Result:
[5.68, 5.70, 5.68, 5.74, 5.92, 5.55]

Can you give me pIC50 for all of these, one by one?
1. CCOc1ccccc1C(=O)Nc1ccc2ncnc(Nc3cccc(Cl)c3)c2c1
2. Oc1ccc(Cl)cc1CNc1ccc2ncnc(Nc3cccc(Br)c3)c2c1
3. O=C(Nc1ccc2ncnc(Nc3cccc(Br)c3)c2c1)c1cc(Br)ccc1O
4. Oc1ccc(Cl)cc1CNc1ccc2ncnc(Nc3cccc(Cl)c3)c2c1

Result:
1: 5.39; 2: 5.77; 3: 5.80; 4: 5.64

Provide pIC50 values for the following items, in order.
1. Oc1c(Br)cc(Br)cc1CNc1ccc2ncnc(Nc3cccc(Br)c3)c2c1
2. O=C(Nc1ccc2ncnc(Nc3cccc(Cl)c3)c2c1)c1cc(Br)ccc1O
3. Oc1ccc(Br)cc1CNc1ccc2ncnc(Nc3cccc(Cl)c3)c2c1
4. Oc1c(Cl)cc(Cl)cc1CNc1ccc2ncnc(Nc3cccc(Br)c3)c2c1

Result:
1. 6.01
2. 5.59
3. 5.42
4. 5.96

* * *

biological target: Aurora B (Homo sapiens, UniProt Q96GD4)
Sequence (Q96GD4 whole entry): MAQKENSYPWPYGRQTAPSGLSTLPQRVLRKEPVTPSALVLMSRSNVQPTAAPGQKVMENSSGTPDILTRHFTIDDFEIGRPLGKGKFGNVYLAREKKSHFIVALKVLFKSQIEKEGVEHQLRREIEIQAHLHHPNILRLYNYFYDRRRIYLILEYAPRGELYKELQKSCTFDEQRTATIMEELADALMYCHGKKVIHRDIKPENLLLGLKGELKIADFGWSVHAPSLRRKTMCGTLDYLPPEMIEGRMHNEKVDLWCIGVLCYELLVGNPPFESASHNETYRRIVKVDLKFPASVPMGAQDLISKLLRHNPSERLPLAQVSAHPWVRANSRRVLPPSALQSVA
MEASURE_NAME: IC50 (µM)
One number for each entry, in µM.

Record for O=C(Nc1ccc2ncnc(Nc3cccc(Br)c3)c2c1)c1ccc(C(F)(F)F)cc1O under target or system Aurora B (Homo sapiens, UniProt Q96GD4): IC50 reported as 63.7

* * *

target: CDK2/CycA (Homo sapiens, UniProt P24941); construct: 6His (C); test: Serine/threonine kinase profiling ([γ-32P] ATP), CDK2; details: ATP concentration = Km
MEASURE_NAME: pIC50
Give bare numbers, as −log10 of the molar value.

# pIC50 (molecule: O=C(Nc1ccc2ncnc(Nc3cccc(Br)c3)c2c1)c1ccc(C(F)(F)F)cc1O ) is 5.46

* * *

Provide the reported pIC50 of each item.
target: human EGFR (Homo sapiens, UniProt P00533); construct: the cytoplasmic domain (amino acids 669-1210) of human EGFR; FLAG (DYKDDDD) (N); made in house; experiment: EGFR kinase assay ([γ-32P] ATP, poly-Glu-Tyr); format: biochemical; details: phosphorylation of poly-Glu-Tyr copolymer; mean, >1 determination; read-out: Enzyme activity IC50 against EGFR kinase
Sequence (P00533 669-1210): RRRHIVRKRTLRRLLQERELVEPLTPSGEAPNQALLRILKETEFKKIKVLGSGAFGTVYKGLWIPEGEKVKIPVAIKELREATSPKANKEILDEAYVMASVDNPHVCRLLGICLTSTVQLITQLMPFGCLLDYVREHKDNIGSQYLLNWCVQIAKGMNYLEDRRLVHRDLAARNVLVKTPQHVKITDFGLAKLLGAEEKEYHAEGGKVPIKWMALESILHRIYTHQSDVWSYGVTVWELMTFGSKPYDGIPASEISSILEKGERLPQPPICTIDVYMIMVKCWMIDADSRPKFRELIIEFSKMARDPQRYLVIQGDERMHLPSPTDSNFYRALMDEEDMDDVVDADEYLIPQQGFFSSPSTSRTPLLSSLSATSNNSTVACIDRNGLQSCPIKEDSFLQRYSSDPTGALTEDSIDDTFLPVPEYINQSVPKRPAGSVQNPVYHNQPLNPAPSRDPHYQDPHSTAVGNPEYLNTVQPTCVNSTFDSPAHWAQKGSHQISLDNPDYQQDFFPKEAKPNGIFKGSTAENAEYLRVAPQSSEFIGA
Give bare numbers, as −log10 of the molar value.

Below are 7 molecules. Give each one its pIC50.
1. Oc1ccc(Br)cc1CNc1ccc2ncnc(Nc3cccc(Br)c3)c2c1 [Compound 11]
2. O=C(Nc1ccc2ncnc(Nc3cccc(Cl)c3)c2c1)c1ccc(Cl)cc1O [Compound 23]
3. O=C(Nc1ccc2ncnc(Nc3cccc(Br)c3)c2c1)c1ccc(Cl)cc1 [Compound 27]
4. Oc1ccc(Cl)cc1CNc1ccc2ncnc(Nc3cccc(Cl)c3)c2c1 [Compound 13]
5. Oc1ccc(Br)cc1CNc1ccc2ncnc(Nc3cccc(Cl)c3)c2c1 [Compound 15]
6. O=C(Nc1ccc2ncnc(Nc3cccc(Br)c3)c2c1)c1ccc(Cl)cc1O [Compound 17]
7. CCOc1ccccc1C(=O)Nc1ccc2ncnc(Nc3cccc(Cl)c3)c2c1 [Compound 26]

Result:
1. 6.24
2. 6.49
3. 5.11
4. 6.08
5. 6.12
6. 5.92
7. 5.20

Working through the 3 molecules below one at a time, give pIC50 for each.
1. O=C(Nc1ccc2ncnc(Nc3cccc(Br)c3)c2c1)c1ccc(C(F)(F)F)cc1O [Compound 21]
2. O=C(Nc1ccc2ncnc(Nc3cccc(Cl)c3)c2c1)c1cc(Br)ccc1O [Compound 25]
3. Oc1c(Br)cc(Br)cc1CNc1ccc2ncnc(Nc3cccc(Br)c3)c2c1 [Compound 12]

Result:
1. 6.92
2. 6.24
3. 6.02
